Every entry's value here was drawn from patent US10106556B2.

- measuredOn: His-hMAGL (recombinant polyhistidine tagged human MAGL protein) (Homo sapiens, UniProt Q99685)
- Construct: made in house; host or cells: E. coli BL21(DE3)
- Sequence (Q99685 whole entry): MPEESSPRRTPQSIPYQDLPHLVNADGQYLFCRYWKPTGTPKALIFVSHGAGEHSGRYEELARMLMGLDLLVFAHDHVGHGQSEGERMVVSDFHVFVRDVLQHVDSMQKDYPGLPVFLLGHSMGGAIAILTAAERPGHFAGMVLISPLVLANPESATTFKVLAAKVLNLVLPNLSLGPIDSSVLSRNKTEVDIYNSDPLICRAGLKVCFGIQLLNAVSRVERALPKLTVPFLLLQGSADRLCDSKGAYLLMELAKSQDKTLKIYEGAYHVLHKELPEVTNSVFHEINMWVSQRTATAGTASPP
- measurementDescription: Measurement of MAGL inhibitory activity (arachidonic acid production from 2-arachidonylglycerol, RapidFire-mass spectrometry)
- Format: biochemical
- experimentalParameters: MAGL inhibitory rate at 10 μM test compound; 60 min preincubation with His-hMAGL, 2-arachidonylglycerol substrate, 10 min reaction at room temperature

| molecule | inhibition at 10 µM, % |
| --- | --- |
| O=C1COc2ccc(C(=O)N3CCC(COc4ccc5[nH]ncc5c4)CC3)cc2N1 | 94 |
| O=C1COc2cc(F)c(C(=O)N3CC(COc4ccc(-c5ccccc5)cc4)C3)cc2N1 | 99 |
| O=C1COc2cc(F)c(C(=O)N3CC(OCc4ccccc4)C3)cc2N1 | 99 |
| CC(Oc1ccc(F)cc1Cl)C1CN(C(=O)c2cc3c(cc2F)OCC(=O)N3)C1 (stereo not shown) | 99 |
| O=C1COc2cc(F)c(C(=O)N3CC(COc4cnc5c(c4)CCCO5)C3)cc2N1 | 101 |
| Cc1nc(C)c(-c2ccc(OCC3CN(C(=O)c4cc5c(cc4F)OCC(=O)N5)C3)c(F)c2)s1 | 100 |
| O=C1COc2cc(F)c(C(=O)N3CC(COc4ccc(-c5ccncc5)cc4F)C3)cc2N1 | 100 |

----------
Entries annotated with measured inhibition at 10 µM
- measuredOn: His-hMAGL (recombinant polyhistidine tagged human MAGL protein) (Homo sapiens, UniProt Q99685)
- Construct: made in house; host or cells: E. coli BL21(DE3)
- measurementDescription: Measurement of MAGL inhibitory activity (arachidonic acid production from 2-arachidonylglycerol, RapidFire-mass spectrometry)
- Format: biochemical
- experimentalParameters: MAGL inhibitory rate at 10 μM test compound; 60 min preincubation with His-hMAGL, 2-arachidonylglycerol substrate, 10 min reaction at room temperature
quantityName: inhibition at 10 µM (%)

| molecule | measurementUnit | quantitativeReadout |
| --- | --- | --- |
| N#Cc1ccc(OCC2CCN(C(=O)c3ccc4c(c3)NC(=O)CO4)CC2)cc1 | % | 92 |
| Cc1cc(F)ccc1OCC1CN(C(=O)c2cc3c(cc2F)OCC(=O)N3)C1 | % | 101 |
| COCC(Oc1ccc(Cl)cc1F)C1CN(C(=O)c2cc3c(cc2F)OCC(=O)N3)C1 (centres unmarked) | % | 98 |
| O=C1COc2cc(F)c(C(=O)N3CC(COc4ccc5cnccc5c4)C3)cc2N1 | % | 98 |
| Cc1cc(Cl)ccc1OCC1CCN(C(=O)c2ccc3c(c2)NC(=O)CO3)CC1 | % | 101 |
| O=C1COc2cc(F)c(C(=O)N3CC(COCc4ccc(Cl)cc4)C3)cc2N1 | % | 102 |
| O=C1COc2cc(F)c(C(=O)N3CC(COc4ccc(C5=CCOCC5)cc4F)C3)cc2N1 | % | 100 |
| COc1ccc(COC2CN(C(=O)c3cc4c(cc3F)OCC(=O)N4)C2)c(Cl)c1 | % | 102 |

----------
- measuredOn: His-hMAGL (recombinant polyhistidine tagged human MAGL protein) (Homo sapiens)
- Construct: made in house; host or cells: E. coli BL21(DE3)
- measurementDescription: Measurement of MAGL inhibitory activity (arachidonic acid production from 2-arachidonylglycerol, RapidFire-mass spectrometry)
- Format: biochemical
- experimentalParameters: MAGL inhibitory rate at 10 μM test compound; 60 min preincubation with His-hMAGL, 2-arachidonylglycerol substrate, 10 min reaction at room temperature
Entries annotated with measured inhibition at 10 µM

| testSmiles | measuredOn | inhibition at 10 µM / % |
| --- | --- | --- |
| Cc1cc(C)c(OCC2CCN(C(=O)c3ccc4c(c3)NC(=O)CO4)CC2)cn1 | His-hMAGL (recombinant polyhistidine tagged human MAGL protein) (Homo sapiens) | 100 |
| O=C1COc2cc(F)c(C(=O)N3CCC(COc4ccc5c(c4)CCCC5)CC3)cc2N1 | His-hMAGL (recombinant polyhistidine tagged human MAGL protein) (Homo sapiens) | 96 |
| Cc1cc2c(cc1C(=O)N1CC(COc3ccc(F)cc3Cl)C1)NC(=O)CO2 | His-hMAGL (recombinant polyhistidine tagged human MAGL protein) (Homo sapiens) | 96 |
| O=C1COc2cc(F)c(C(=O)N3CCC(COc4ccc(F)cc4Cl)CC3)cc2N1 | His-hMAGL (recombinant polyhistidine tagged human MAGL protein) (Homo sapiens) | 104 |
| CN1CC=C(c2cc(Cl)ccc2OCC2CN(C(=O)c3cc4c(cc3F)OCC(=O)N4)C2)CC1 | His-hMAGL (recombinant polyhistidine tagged human MAGL protein) (Homo sapiens) | 94 |
| N#Cc1ccc(OCC2CCN(C(=O)c3ccc4c(c3)NC(=O)CO4)CC2)c(Cl)c1 | His-hMAGL (recombinant polyhistidine tagged human MAGL protein) (Homo sapiens) | 102 |
| O=C1COc2cc(F)c(C(=O)N3CC(OCc4cccc(C(F)F)c4)C3)cc2N1 | His-hMAGL (recombinant polyhistidine tagged human MAGL protein) (Homo sapiens) | 103 |
| O=C1COc2cc(Cl)c(C(=O)N3CC(COc4ccc(F)cc4Cl)C3)cc2N1 | His-hMAGL (recombinant polyhistidine tagged human MAGL protein) (Homo sapiens) | 102 |
| O=C1COc2cc(F)c(C(=O)N3CC(COc4ccc(Br)cc4)C3)cc2N1 | His-hMAGL (recombinant polyhistidine tagged human MAGL protein) (Homo sapiens) | 98 |
| CC1(C)Cc2cccc(OCC3CN(C(=O)c4cc5c(cc4F)OCC(=O)N5)C3)c2O1 | His-hMAGL (recombinant polyhistidine tagged human MAGL protein) (Homo sapiens) | 102 |
| O=C1COc2cc(F)c(C(=O)N3CCC(COc4ccc(-c5ccccc5)cc4)CC3)cc2N1 | His-hMAGL (recombinant polyhistidine tagged human MAGL protein) (Homo sapiens) | 85 |
| O=C1COc2cc(F)c(C(=O)N3CC(COc4cc(F)cc(Cl)c4)C3)cc2N1 | His-hMAGL (recombinant polyhistidine tagged human MAGL protein) (Homo sapiens) | 102 |
| O=C1COc2cc(F)c(C(=O)N3CC(F)(COc4ccc(F)cc4Cl)C3)cc2N1 | His-hMAGL (recombinant polyhistidine tagged human MAGL protein) (Homo sapiens) | 100 |
| O=C1COc2cc(F)c(C(=O)N3CC(COc4noc5ccc(Cl)cc45)C3)cc2N1 | His-hMAGL (recombinant polyhistidine tagged human MAGL protein) (Homo sapiens) | 96 |
| O=C1COc2cc(F)c(C(=O)N3CC(OCc4ccc(C(F)F)cc4F)C3)cc2N1 | His-hMAGL (recombinant polyhistidine tagged human MAGL protein) (Homo sapiens) | 101 |
| CCc1ncccc1-c1cc(Cl)ccc1OCC1CN(C(=O)c2cc3c(cc2F)OCC(=O)N3)C1 | His-hMAGL (recombinant polyhistidine tagged human MAGL protein) (Homo sapiens) | 103 |
| O=C1COc2ccc(C(=O)N3CC(OCc4ccc(Cl)cc4Cl)C3)cc2N1 | His-hMAGL (recombinant polyhistidine tagged human MAGL protein) (Homo sapiens) | 101 |
